- System: SK-MEL-2
- assay comment: NCI tumour cell line growth inhibition, 48 h
Active and inactive are the calls of the source. No stated cut-off is given here; in the data, active = GI50 up to about 1.1 µM and inactive = higher.
Log the outcome using a class from active, inactive

{"columns": ["compound", "label value"],
 "data": [
  ["CCc1ccccc1NC(=O)/C(CC(=O)c1c(C)[n+]([O-])c2ccccc2[n+]1[O-])=N\\NS(=O)(=O)c1ccc(C)cc1", "inactive"],
  ["O=C(CCCCCCCCC(=O)NN1C(=O)/C(=C\\c2ccc(O)c(O)c2)SC1c1c(O)ccc2ccccc12)NN1C(=O)C(=Cc2ccc(O)c(O)c2)SC1c1c(O)ccc2ccccc12 (stereo not drawn)", "inactive"],
  ["COC(=O)c1sc2nc(Nc3ccccc3)/c(=N\\c3ccccc3)sc2c1C", "inactive"],
  ["COc1cc2c(cc1OC)C1c3ccccc3CCN1CC2 (stereo not drawn)", "inactive"],
  ["CCOC(=O)c1cc(C)nc2c1c(=O)n(-c1ccccc1)c(=O)n2CCCCN1CCN(c2ncccn2)CC1", "inactive"]
]}

Record lookup: outcome of this test for "O=[N+]([O-])c1cccc2nc3ccccc3c(NCCC[N+]3([O-])CCCCC3)c12" ?
active

// same read-out, input: "CN(CC(=O)O)S(=O)(=O)c1ccc(F)cc1"
inactive

----------
- System: SK-OV-3
- assay comment: NCI tumour cell line growth inhibition, 48 h
Calls of active or inactive are those of the source. Rule as the data show it: active = GI50 up to about 1.1 µM and inactive = higher.
readout kind: GI50

Here is how some molecules turned out for GI50.
{"columns": ["molecule", "GI50"],
 "data": [
  ["C(=C\\c1cccc(/C=C/c2ccccn2)n1)/c1ccccn1", "> 100 µM (inactive)"],
  ["COc1ccc(-c2cc(C(O)C3CCCCN3)c3ccccc3n2)cc1 (stereo unspecified)", "14.2 µM (inactive)"],
  ["COc1ccc([I+]c2ccc(OC)cc2)cc1", "> 100 µM (inactive)"],
  ["COc1cccc2c1C(CO)N1C(C#N)C3CC(C(=O)O)C(C1C2)N3C (stereo unspecified)", "3.6 µM (inactive)"],
  ["Cc1ccc(C)c(NC(=O)C(Cc2c[nH]c3ccccc23)NC(=O)OCc2ccccc2)c1 (stereo unspecified)", "20.1 µM (inactive)"],
  ["Clc1ncc(C(Cl)(Cl)Cl)nc1-c1ccccc1", "11.9 µM (inactive)"],
  ["C[C@H]1S[C@H](c2c(F)cccc2F)n2c1nc1ccccc12", "38.4 µM (inactive)"],
  ["O=C1CCNC/C1=C\\c1ccccc1", "55 µM (inactive)"],
  ["CN(CC(=O)O)S(=O)(=O)c1ccc(F)cc1", "> 100 µM (inactive)"],
  ["CC(C)(C)C1=CC(O)(c2c3ccccc3c(C3(O)C=C(C(C)(C)C)C(=O)C(C(C)(C)C)=C3)c3ccccc23)C=C(C(C)(C)C)C1=O", "> 100 µM (inactive)"]
]}

Given the molecule O=C(CCCCCCCCC(=O)NN1C(=O)/C(=C\c2ccc(O)c(O)c2)SC1c1c(O)ccc2ccccc12)NN1C(=O)C(=Cc2ccc(O)c(O)c2)SC1c1c(O)ccc2ccccc12 (stereo unspecified) , what is its reported GI50?
6.28 µM (inactive)

Now the same for "c1ccc(/N=C(\N2CCOCC2)N(CCN2CCOCC2)c2ccccc2)cc1"
> 100 µM (inactive)

// query: CC(O)CNC(=O)Nc1c(C(F)(F)F)cc(-c2ccccc2)[nH]c1=O (stereo unspecified)
> 100 µM (inactive)

// next record "COC(=O)c1sc2nc(Nc3ccccc3)/c(=N\c3ccccc3)sc2c1C"
32.8 µM (inactive)
